molecular target: HLA-B*39:01; test: IEDB peptide-MHC binding, purified MHC/direct/fluorescence; filed as Kd, often an IC50 or EC50 that approximates it; bounds were set here for any values at or beyond the usual limits of such assays; details: source organism: Camelpox virus M-96
OBSERVATION TYPE: Kd
Entry format: amount then unit.

q: # get_value(readout='Kd', item= `FHFFVHTLL` )
a: 52 nM

====

Would you kindly list log10 of Kd for each of these sequences?
target: HLA-A*31:01; assay: IEDB peptide-MHC binding, purified MHC/competitive/radioactivity; filed as Kd, often an IC50 or EC50 that approximates it; bounds were set here for any values at or beyond the usual limits of such assays; conditions: source organism: Dengue virus 2 Jamaica/1409/1983
Field: value | Transform: log10 | Quantity: Kd | Unit: nM

q: # get_value(readout='log10 of Kd', item= `TVMDIISRR` )
a: 1.25

q: # get_value(readout='log10 of Kd', item= `TIGTTHFQR` )
a: 1.16

q: # get_value(readout='log10 of Kd', item= `NMISRMLINR` )
a: 1.26

q: # get_value(readout='log10 of Kd', item= `WTLMYFHRR` )
a: 0.17

q: # get_value(readout='log10 of Kd', item= `LMCHATFTMR` )
a: 0.86

====

target: HLA-C*04:01; test: IEDB peptide-MHC binding, purified MHC/competitive/fluorescence; filed as Kd, often an IC50 or EC50 that approximates it; bounds were set here for any values at or beyond the usual limits of such assays; conditions: source organism: West Nile virus
OBSERVATION TYPE: Kd

q: # get_value(readout='Kd', item= `REWFMDLNL` )
a: ≥ 5 µM

====

biological target: HLA-B*58:01; experiment: IEDB peptide-MHC binding, purified MHC/direct/fluorescence; filed as Kd, often an IC50 or EC50 that approximates it; bounds were set here for any values at or beyond the usual limits of such assays; conditions: source organism: Variola virus
OBSERVATION TYPE: pKd
For clarity, pKd is expressed as the negative log10 of concentration in mol/L.

q: API: value(readout=pKd, system=HLA-B*58:01) for record `YTDLTYQSF`
a: 7.08

====

molecular target: HLA-A*69:01; assay: IEDB peptide-MHC binding, purified MHC/direct/fluorescence; filed as Kd, often an IC50 or EC50 that approximates it; bounds were set here for any values at or beyond the usual limits of such assays; conditions: source organism: Camelpox virus M-96
OBSERVATION TYPE: Kd

q: # get_value(readout='Kd', item= `SQEDNHFSL` )
a: ≥ 20 µM

====

molecular target: HLA-B*40:01; assay: IEDB peptide-MHC binding, purified MHC/direct/fluorescence; filed as Kd, often an IC50 or EC50 that approximates it; bounds were set here for any values at or beyond the usual limits of such assays; details: source organism: Cowpox virus
pKd: −log10 of the molar value.
OBSERVATION TYPE: pKd

q: # get_value(readout='pKd', item= `YTDLTYQSF` )
a: ≤ 4.70

====

target: HLA-A*69:01; experiment: IEDB peptide-MHC binding, purified MHC/competitive/fluorescence; filed as Kd, often an IC50 or EC50 that approximates it; bounds were set here for any values at or beyond the usual limits of such assays; settings: source organism: Rickettsia sibirica 246
pKd: −log10 of the molar value.
OBSERVATION TYPE: pKd

q: API: value(readout=pKd, system=HLA-A*69:01) for record `AMYDPQTYY`
a: ≤ 4.70

All figures here come from the Immune Epitope Database (IEDB).
